# study.system: Cezanne 1 (Homo sapiens (Human))
# test.summary: Cezanne 1 biochemical IC50 assay (fluorescence polarisation, TAMRA labelled peptide linked to ubiquitin)
# assay.setup: Cezanne 1 biochemical IC50 assay; 30 min pre-incubation, read after 2 hr at room temperature; read-out: IC50 range
# Description: The Cezanne 1 construct was PCR amplified and cloned into a pFLAG-CMV-6c vector (Sigma-Aldrich) with an N-terminal FLAG tag. […] Reactions were initiated by the addition of 50 nM of TAMRA labelled peptide linked to ubiquitin via an iso-peptide bond as fluorescence polarisation substrate. Reactions were read immediately after addition of substrate and following a 2 hr incubation at room temperature. Readings were performed on a Pherastar Plus (BMG Labtech). λ Excitation 540 nm; λ Emission 590 nm.
pIC50: −log10 of the molar value.
property.measured: pIC50

N#CN1CC[C@@]2(C1)Oc1ncc(-c3ccc(F)cc3)cc1NC2=O = 6.00 to 7.00
CC(=O)Nc1cccc(-c2ccc3c(c2)CC2(CCN(C#N)C2)C(=O)N3)c1 (stereo not drawn) = 6.00 to 7.00
N#CN1CCC2(C1)Oc1ncc(-c3cccc(F)c3)cc1NC2=O (stereo not drawn) = 6.00 to 7.00
N#CN1CCC2(C1)Nc1nc(-c3ccccc3)ccc1NC2=O (stereo not drawn) = 5.00 to 6.00

Quick one: pIC50 for N#CN1CCC2(Cc3cc(-c4ccccc4)ccc3NC2=O)C1 (stereo not drawn) ? 6.00 to 7.00

* * *

# study.system: Cezanne 1 (Homo sapiens (Human), UniProt Q6GQQ9)
# Sequence (Q6GQQ9 whole entry): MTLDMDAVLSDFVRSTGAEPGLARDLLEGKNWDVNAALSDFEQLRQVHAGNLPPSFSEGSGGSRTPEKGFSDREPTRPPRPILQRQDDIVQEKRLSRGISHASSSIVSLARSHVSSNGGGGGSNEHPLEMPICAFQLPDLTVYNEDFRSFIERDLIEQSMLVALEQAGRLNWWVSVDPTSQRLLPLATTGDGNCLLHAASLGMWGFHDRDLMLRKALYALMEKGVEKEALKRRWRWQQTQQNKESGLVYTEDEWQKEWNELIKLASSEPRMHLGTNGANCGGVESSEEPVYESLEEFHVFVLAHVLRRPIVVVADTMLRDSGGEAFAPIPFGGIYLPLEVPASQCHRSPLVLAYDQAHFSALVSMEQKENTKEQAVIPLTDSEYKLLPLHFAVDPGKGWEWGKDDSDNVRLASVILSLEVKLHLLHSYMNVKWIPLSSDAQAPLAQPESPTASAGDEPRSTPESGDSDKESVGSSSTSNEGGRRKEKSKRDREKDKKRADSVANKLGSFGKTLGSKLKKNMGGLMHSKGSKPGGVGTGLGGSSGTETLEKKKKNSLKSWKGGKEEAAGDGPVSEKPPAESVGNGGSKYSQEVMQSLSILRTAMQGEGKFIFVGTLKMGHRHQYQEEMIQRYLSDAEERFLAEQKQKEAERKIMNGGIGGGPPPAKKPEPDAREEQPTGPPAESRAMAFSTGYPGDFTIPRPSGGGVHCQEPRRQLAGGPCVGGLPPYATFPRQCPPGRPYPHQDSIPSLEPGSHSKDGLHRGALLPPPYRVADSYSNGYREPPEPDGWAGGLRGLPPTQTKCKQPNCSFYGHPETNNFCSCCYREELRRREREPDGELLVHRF
# test.summary: Cezanne 1 biochemical IC50 assay (fluorescence polarisation, TAMRA labelled peptide linked to ubiquitin)
# assay.setup: Cezanne 1 biochemical IC50 assay; 30 min pre-incubation, read after 2 hr at room temperature; read-out: IC50 range
# Protocol: The Cezanne 1 construct was PCR amplified and cloned into a pFLAG-CMV-6c vector (Sigma-Aldrich) with an N-terminal FLAG tag. […] Reactions were initiated by the addition of 50 nM of TAMRA labelled peptide linked to ubiquitin via an iso-peptide bond as fluorescence polarisation substrate. Reactions were read immediately after addition of substrate and following a 2 hr incubation at room temperature. Readings were performed on a Pherastar Plus (BMG Labtech). λ Excitation 540 nm; λ Emission 590 nm.
Recorded IC50, one value per entry.

// below: answered molecules
N#CN1CC[C@@]2(C1)Oc1ncc(-c3ccccc3)cc1NC2=O [Example 64] = 100 to 1000 nM
N#CN1CCC2(Cc3ccc(-c4cncnc4)cc3NC2=O)C1 (stereo not shown) [Example 28] = 100 to 1000 nM
CC1(c2ccccc2)NC(=O)C2(CCN(C#N)C2)NC1=O (stereo not shown) [Example 87] = 100 to 1000 nM
N#CN1CCC2(Cc3ccc(-c4cccc(OC(F)(F)F)c4)cc3NC2=O)C1 (stereo not shown) [Example 88] = 1000 to 10000 nM
N#Cc1ccc(-c2ccc3c(c2)CC2(CCN(C#N)C2)C(=O)N3)cc1 (stereo not shown) [Example 42] = 100 to 1000 nM

Quick check: IC50 of N#CN1CCC2(C1)Nc1ncc(-c3ccc(F)cc3)cc1NC2=O (stereo not shown) [Example 59] ? 100 to 1000 nM

Any idea what its IC50 is? The molecule is N#CN1CCC2(CC(c3ccccc3)NC2=O)C1 (single isomer, unassigned) [Example 84] > 10000 nM

Which IC50 reading was recorded for the molecule COc1ccc(C(C)C)cc1-c1ccc2c(c1)CC1(CCN(C#N)C1)C(=O)N2 (stereo not shown) [Example 101] ? 100 to 1000 nM

What value of measured IC50 is listed for N#CN1CCC2(Cc3cc(-c4cncnc4)ccc3NC2=O)C1 (stereo not shown) [Example 111] ? 100 to 1000 nM

IC50 for CC(C)Oc1ccc(F)cc1-c1ccc2c(c1)CC1(CCN(C#N)C1)C(=O)N2 (stereo not shown) [Example 104] ? 100 to 1000 nM

What measured IC50 goes with CC(=O)Nc1ccccc1-c1ccc2c(c1)NC(=O)C1(CCN(C#N)C1)C2 (stereo not shown) [Example 36] ? 100 to 1000 nM

May I ask what IC50 has been recorded for CN(C)C(=O)c1ccc(-c2ccc3c(c2)CC2(CCN(C#N)C2)C(=O)N3)cc1 (stereo not shown) [Example 110] ? 100 to 1000 nM

* * *

# study.system: Cezanne 1 (Homo sapiens (Human))
# test.summary: Cezanne 1 biochemical IC50 assay (fluorescence polarisation, TAMRA labelled peptide linked to ubiquitin)
# assay.setup: Cezanne 1 biochemical IC50 assay; 30 min pre-incubation, read after 2 hr at room temperature; read-out: IC50 range
IC50 values for the compounds below.

Please review the following examples before continuing.
CN1CCN(c2ccc(-c3ccc4c(c3)NC(=O)C3(CCN(C#N)C3)C4)cc2)CC1 (stereo not drawn) [Example 19] = 100 to 1000 nM
N#CN1CCC2(Cc3ccc(-c4ccc(C(=O)N5CCOCC5)cc4)cc3NC2=O)C1 (stereo not drawn) [Example 37] = 1000 to 10000 nM
CC(=O)Nc1ccc(-c2ccc3c(c2)NC(=O)C2(CCN(C#N)C2)C3)cc1 (stereo not drawn) [Example 31] = 1000 to 10000 nM
CNC(=O)c1ccc2c(c1)NC(=O)C1(CCN(C#N)C1)C2 (stereo not drawn) [Example 47] = 1000 to 10000 nM

Param item = N#CN1CCC2(Cc3cc(-c4ccc(C(=O)NCc5ccccc5)cc4)ccc3NC2=O)C1 (stereo not drawn) [Example 127] ; retrieve measured IC50. 100 to 1000 nM

Endpoint output: IC50 of N#Cc1ccc(-c2ccc3c(c2)NC(=O)C2(CCN(C#N)C2)C3)cc1 (stereo not drawn) [Example 13] . Value? 1000 to 10000 nM

Could you tell me which IC50 is on file for Cc1ccc2[nH]ncc2c1-c1ccc2c(c1)NC(=O)C1(CCN(C#N)C1)C2 (stereo not drawn) [Example 25] ? 100 to 1000 nM

Given the entry CC(C)Oc1ccc(F)cc1-c1ccc2c(c1)NC(=O)C1(CCN(C#N)C1)C2 (stereo not drawn) [Example 21] , report its measured IC50. 100 to 1000 nM

Given CC(=O)Nc1ccccc1-c1ccc2c(c1)CC1(CCN(C#N)C1)C(=O)N2 (stereo not drawn) [Example 119] , state its recorded IC50. 100 to 1000 nM

Using the record for N#CN1CCC2(Cc3cc(-c4cccc(S(=O)(=O)N5CCOCC5)c4)ccc3NC2=O)C1 (stereo not drawn) [Example 121] , report its IC50. 100 to 1000 nM

* * *

# study.system: Cezanne 1 (Homo sapiens (Human), UniProt Q6GQQ9)
# test.summary: Cezanne 1 biochemical IC50 assay (fluorescence polarisation, TAMRA labelled peptide linked to ubiquitin)
# assay.setup: Cezanne 1 biochemical IC50 assay; 30 min pre-incubation, read after 2 hr at room temperature; read-out: IC50 range
pIC50: −log10 of the molar value.
property.measured: pIC50

# pIC50 lookup, item CC(=O)Nc1ccc(-c2ccc3c(c2)CC2(CCN(C#N)C2)C(=O)N3)cc1 (stereo not shown) [Example 113] 6.00 to 7.00

Requested field: pIC50. Item: CNC(=O)c1ccc(-c2ccc3c(c2)NC(=O)C2(CCN(C#N)C2)C3)cn1 (stereo not shown) [Example 15] 5.00 to 6.00

Record request: pIC50 value, item COc1ccc(C(C)C)cc1-c1ccc2c(c1)NC(=O)C1(CCN(C#N)C1)C2 (stereo not shown) [Example 5] 5.00 to 6.00

Bench note: what pIC50 did N#CN1CCC2(Cc3ccc(-c4cc(OC(F)(F)F)ccc4Cl)cc3NC2=O)C1 (stereo not shown) [Example 14] show? 5.00 to 6.00

* * *

# study.system: Cezanne 1 (Homo sapiens (Human), UniProt Q6GQQ9)
# test.summary: Cezanne 1 biochemical IC50 assay (fluorescence polarisation, TAMRA labelled peptide linked to ubiquitin)
# assay.setup: Cezanne 1 biochemical IC50 assay; 30 min pre-incubation, read after 2 hr at room temperature; read-out: IC50 range
pIC50: −log10 of the molar value.
Entries and their pIC50 values follow.

Some entries whose results are on file:
N#Cc1cccc(-c2cnc3c(c2)NC(=O)C2(CCN(C#N)C2)O3)c1 (stereo not shown) = 6.00 to 7.00
N#CN1CCC2(Cc3cc(-c4cccc(N5CCCCC5)c4)ccc3NC2=O)C1 (stereo not shown) = 6.00 to 7.00
N#CN1CC[C@@]2(C1)Nc1ncc(-c3ccc(F)cc3)cc1NC2=O = 6.00 to 7.00

// query pIC50 value for entry Cn1ncc2cc(-c3ccc4c(c3)NC(=O)C3(CCN(C#N)C3)C4)ccc21 (stereo not shown) > 7.00

* * *

# study.system: UniProtKB Q6GQQ9
# test.summary: Cezanne 1 biochemical IC50 assay (fluorescence polarisation, TAMRA labelled peptide linked to ubiquitin)
# assay.setup: Cezanne 1 biochemical IC50 assay; 30 min pre-incubation, read after 2 hr at room temperature; read-out: IC50 range
# Method: The Cezanne 1 construct was PCR amplified and cloned into a pFLAG-CMV-6c vector (Sigma-Aldrich) with an N-terminal FLAG tag. […] Reactions were initiated by the addition of 50 nM of TAMRA labelled peptide linked to ubiquitin via an iso-peptide bond as fluorescence polarisation substrate. Reactions were read immediately after addition of substrate and following a 2 hr incubation at room temperature. Readings were performed on a Pherastar Plus (BMG Labtech). λ Excitation 540 nm; λ Emission 590 nm.
pIC50: −log10 of the molar value.
Recorded pIC50 for the following compounds

# count of solved cases: 10
N#CN1CCC2(CC(Cc3ccccc3)NC2=O)C1 (stereo not shown) = 5.00 to 6.00
CN1CCN(c2ccc(-c3ccc4c(c3)CC3(CCN(C#N)C3)C(=O)N4)cc2)CC1 (stereo not shown) = 6.00 to 7.00
N#CN1CCC2(C1)Nc1ncc(-c3cccc(F)c3)cc1NC2=O (stereo not shown) = 6.00 to 7.00
N#CN1CC[C@@]2(C1)Oc1ncc(-c3cccc(F)c3)cc1NC2=O = 6.00 to 7.00
N#CN1CCC2(Cc3ccc(-c4cccc(NS(=O)(=O)C5CC5)c4)cc3NC2=O)C1 (stereo not shown) = 6.00 to 7.00
CNC(=O)c1ccc(-c2ccc3c(c2)CC2(CCN(C#N)C2)C(=O)N3)cc1 (stereo not shown) = 6.00 to 7.00
N#CN1CCC2(C1)Oc1ncc(-c3ccc(F)cc3)cc1NC2=O (stereo not shown) = 6.00 to 7.00
COCCn1ncc2c(-c3cnc4c(c3)NC(=O)C3(CCN(C#N)C3)O4)cccc21 (stereo not shown) = 6.00 to 7.00
CNC(=O)c1ccc(-c2ccc3c(c2)NC(=O)C2(CCN(C#N)C2)C3)cc1 (stereo not shown) = 5.00 to 6.00
N#Cc1ccc(-c2cnc3c(c2)NC(=O)[C@@]2(CCN(C#N)C2)O3)cc1 = 6.00 to 7.00

Fill in: pIC50 of Cc1nc2cc(-c3ccc4c(c3)CC3(CCN(C#N)C3)C(=O)N4)ccc2s1 (stereo not shown) is ___ 6.00 to 7.00

What value of measured pIC50 is listed for N#Cc1ccc(-c2cnc3c(c2)NC(=O)C2(CCN(C#N)C2)O3)cc1 (stereo not shown) ? 6.00 to 7.00

Entry under review: Cn1cc(-c2ccc3c(c2)NC(=O)C2(CCN(C#N)C2)C3)ccc1=O (stereo not shown) . Reported pIC50? 5.00 to 6.00
